# assay.name: Selectivity index, ratio of IC50 for human HepG2 cells to IC50 for CQ, MFQ-susceptible Plasmodium falciparum D6 clone Sierra 1/UNC isolate
# Type: toxicity, cell-based
# condition.set: read-out: Ratio IC50
Reported selectivity ratio values are given for each entry in this list.

Solved entries (count: 3):
CC(=O)O[C@H]1C[C@H]2[C@@H]([C@H](OC(C)=O)C[C@@H]3CC(=O)CC[C@@]32C)[C@@H]2CC[C@H]([C@H](C)CCCNCCCNc3ccnc4cc(Cl)ccc34)[C@@]12C; 182
CC(=O)O[C@@H]1CC[C@@]2(C)[C@@H](C1)C[C@@H](OC(C)=O)[C@@H]1[C@@H]2C[C@H](OC(C)=O)[C@]2(C)[C@@H]([C@H](C)CCCN(C)CCCNc3ccnc4cc(Cl)ccc34)CC[C@@H]12; 229
CC(=O)O[C@H]1C[C@H]2[C@@H]([C@H](OC(C)=O)C[C@@H]3C[C@H](N)CC[C@@]32C)[C@@H]2CC[C@H]([C@H](C)CCCN(CCCNc3ccnc4cc(Cl)ccc34)CCC[C@@H](C)[C@H]3CC[C@H]4[C@@H]5[C@H](OC(C)=O)C[C@@H]6C[C@H](N)CC[C@]6(C)[C@H]5C[C@H](OC(C)=O)[C@]34C)[C@@]12C; 9

Give the measured selectivity ratio of CC(=O)O[C@H]1C[C@H]2[C@@H]([C@H](OC(C)=O)C[C@@H]3CC(NCCNc4ccnc5cc(Cl)ccc45)CC[C@@]32C)[C@@H]2CC[C@H]([C@H](C)CCCNCCNc3ccnc4cc(Cl)ccc34)[C@@]12C (stereo partly drawn) . 32

Now consider `CC(=O)O[C@H]1C[C@H]2[C@@H]([C@H](OC(C)=O)C[C@@H]3C[C@H](NS(C)(=O)=O)CC[C@@]32C)[C@@H]2CC[C@H]([C@H](C)CCCNCCNc3ccnc4cc(Cl)ccc34)[C@@]12C` . 301

Would you mind doing `CC(=O)O[C@H]1C[C@H]2[C@@H]([C@H](OC(C)=O)C[C@@H]3C[C@H](O)CC[C@@]32C)[C@@H]2CC[C@H]([C@H](C)CCCNCCCCNc3ccnc4cc(Cl)ccc34)[C@@]12C` as well? 30

And the next one, `CC(=O)O[C@@H]1CC[C@@]2(C)[C@@H](C1)C[C@@H](OC(C)=O)[C@@H]1[C@@H]2C[C@H](OC(C)=O)[C@]2(C)[C@@H]([C@H](C)CCCNCCCCNc3ccnc4cc(Cl)ccc34)CC[C@@H]12` ? 55

`CC(=O)O[C@H]1C[C@H]2[C@@H]([C@H](OC(C)=O)C[C@@H]3C[C@H](NS(C)(=O)=O)CC[C@@]32C)[C@@H]2CC[C@H]([C@H](C)CCCN(C)CCCNc3ccnc4cc(Cl)ccc34)[C@@]12C` ? 89

----------
# Test system: Plasmodium falciparum
# assay.name: Antimalarial activity against CQ-resistant, MFQ-susceptible Plasmodium falciparum W2 clone Indochina 1 isolate assessed as inhibition of parasite proliferation by MSF assay
# Format: functional, organism-based
IC50 by entry:
Hi! Could you send only the number? It should be in µM, unit omitted.

CC(=O)O[C@@H]1CC[C@@]2(C)[C@@H](C1)C[C@@H](OC(C)=O)[C@@H]1[C@@H]2C[C@H](OC(C)=O)[C@]2(C)[C@@H]([C@H](C)CCCNCCCCNc3ccnc4cc(Cl)ccc34)CC[C@@H]12; 0.0239

# IC50 lookup, item `CC(=O)O[C@H]1C[C@H]2[C@@H]([C@H](OC(C)=O)C[C@@H]3C[C@H](N(C)C)CC[C@@]32C)[C@@H]2CC[C@H]([C@H](C)CCCNCCNc3ccnc4cc(Cl)ccc34)[C@@]12C` 0.0197
